Could you please report measured IC50 for the items listed next?
test system: WM3928 cells; test: WM3928 Cell Proliferation Assay (1); format: cell-based

Form: molecule = CNC(=O)c1cc(-c2nccc(-c3cc(NC(=O)c4ccnc(C(C)(C)C#N)c4)cnc3C)n2)ccn1 ; IC50 = 100 to 500 nM

Entry Cc1ccc(NC(=O)c2ccnc(C(C)(C)C#N)c2)cc1-c1nccc(-c2ccnc3c2CC(=O)N3)n1 — recorded IC50 = ≤ 100 nM

Record summary for Cc1ccc(NC(=O)c2ccnc(C(C)(C)F)c2)cc1-c1cncc(-c2cc(N)ncn2)c1 : reported IC50 = ≤ 100 nM

// IC50 lookup, molecule = Cc1ncc(NC(=O)c2ccnc(C(C)(C)C#N)c2)cc1-c1cccc(-c2ccnc3c2CC(=O)N3)c1 , result: 100 to 500 nM

Data point: Cc1ccc(NC(=O)c2ccnc(C3(C#N)CC3)c2)cc1-c1cccc(-c2cc(NC(=O)C3CC3)ncn2)n1 ; IC50 = 1000 to 10000 nM

The reported value for Cc1cc(-c2cc(NC(=O)c3ccnc(C(F)(F)F)c3)ccc2F)cc(-c2ccnc(NC(=O)C3CC3)c2)n1 in terms of IC50 is 100 to 500 nM

The molecule COC(=O)Nc1cc(-c2cc(-c3cc(NC(=O)c4ccnc(C(C)(C)F)c4)cnc3C)ccn2)ccn1 showed IC50 equal to 100 to 500 nM

// data source = patent US12319655B2
